# assay text: Human HepG2 cell viability assay in 384 well format
# Assay type: toxicity, cell-based
# Parameters: dose 125 nL, time 70.5 hour; concentration not given beside the values
# cond: HepG2 cells, read-out: Inhibition
# Lookup of reported cytotoxicity at 70.5 h keyed by entry
measurement label: cytotoxicity at 70.5 h (%)

[[record]]
compound = "CC(C)c1nnc2ccc(N3CCCC(C(=O)Nc4nccs4)C3)nn12 (centres undefined)"
readout_value = -25.2

[[record]]
compound = "Cc1cc(NC(=O)NCC(O)c2ccc(F)cc2)n(C)n1 (centres undefined)"
readout_value = -12.7

[[record]]
compound = "CC(C(=O)N1CCCN(Cc2cnn(C(C)C)c2)CC1)n1ccnc1 (centres undefined)"
readout_value = 23.5

[[record]]
compound = "O=C(O)c1cc(S(=O)(=O)Nc2cnn(C3CCOCC3)c2)ccc1F"
readout_value = -6.44

[[record]]
compound = "CN(c1ncnc2c1CCC2)C1CCCN(c2cccnn2)C1 (centres undefined)"
readout_value = 1.68

[[record]]
compound = "Cc1cc(NC(=O)N2CCN(c3nc(C)c(C)s3)CC2)no1"
readout_value = 21.7

[[record]]
compound = "CCC(NC(=O)CC1CCN(C(C)C)CC1)c1cn2cccnc2n1 (centres undefined)"
readout_value = 1.45

[[record]]
compound = "OCCN1CCCCC1c1cc[nH]n1 (centres undefined)"
readout_value = -8.74

[[record]]
compound = "Cc1nc2n(n1)CC(NCc1cc(Cl)c3c(c1)OCCCO3)CC2 (centres undefined)"
readout_value = -6.52

[[record]]
compound = "Cn1ncnc1CNc1ccc2c(c1)N(C(=O)OC(C)(C)C)CCC2"
readout_value = -8.19

[[record]]
compound = "O=C(NC[C@H]1CCCC[C@H]1O)c1cccc2[nH]c(-c3ccco3)nc12"
readout_value = 15.3

[[record]]
compound = "CN(C)CCN1CCN(C)C2(CCN(c3nccs3)CC2)C1=O"
readout_value = -3.76

[[record]]
compound = "COc1cc(-c2cc(OC)c(OC)c(OC)c2)ncn1"
readout_value = -6.68

[[record]]
compound = "Fc1ccc(Br)c(NCc2nnsc2Cl)c1"
readout_value = -2.39

[[record]]
compound = "CCC(CO)NC(=O)NCc1cc(C#N)ccc1F (centres undefined)"
readout_value = -9.99

[[record]]
compound = "COCc1noc(CCNc2ncnc3c2CCNCC3)n1"
readout_value = -8.6

[[record]]
compound = "CN1CC=C(c2noc(CCC(=O)N3CCc4ccccc4C3)n2)CC1"
readout_value = -15

[[record]]
compound = "CCCC(=O)N1CCC(c2cc3cccnc3c(O)n2)CC1"
readout_value = -5.85

[[record]]
compound = "O=C(O)C(c1ccc2c(c1)OCCO2)N1CCCCCC1 (centres undefined)"
readout_value = -7.26

[[record]]
compound = "OC(c1ccccc1)C1CCN(Cc2csc(-c3ncccn3)n2)CC1 (centres undefined)"
readout_value = -7.96

[[record]]
compound = "Cc1cnc(CN2CCOC(CNc3cccnn3)C2)cn1 (centres undefined)"
readout_value = -8.2

[[record]]
compound = "COc1cccc2c1CCN(C(=O)NCCc1nccn1C)C2"
readout_value = -1.05

[[record]]
compound = "CNC(=O)C1CN(C(C)C)CCN1c1ncccn1 (centres undefined)"
readout_value = 2.44

[[record]]
compound = "CSc1ccc(CNC2CCCc3c2cnn3C)cc1 (centres undefined)"
readout_value = -8.39

[[record]]
compound = "O=C(Nc1ccccc1)N1C[C@H]2CC[C@@H]1CN(Cc1ccccc1)C2"
readout_value = -4.8

[[record]]
compound = "CC(C)c1nn(C)c(N(C)C)c1CNCc1ccccc1CO"
readout_value = 0.684

[[record]]
compound = "Cn1nc2c(cc1=O)CN(CC(=O)Nc1cc(C(C)(C)C)no1)CC2"
readout_value = 13.4

[[record]]
compound = "Cc1oncc1C(=O)N1CC[C@H]2[C@H]1CCN2Cc1ccccn1"
readout_value = -3.13

[[record]]
compound = "O=C(c1ccncc1)N1CCCC1c1nc(O)cc(-c2ccccn2)n1 (centres undefined)"
readout_value = -2.92

[[record]]
compound = "CC1Oc2c(cccc2C(=O)N2CCN(CC(C)(C)O)CC2)NC1=O (centres undefined)"
readout_value = -10.7

[[record]]
compound = "O=C(Nc1cc2c(cc1Br)OCCO2)NC1CCS(=O)(=O)C1 (centres undefined)"
readout_value = 10.1

[[record]]
compound = "COc1ccc(Nc2c[nH]c(=O)[nH]c2=O)cc1"
readout_value = 4.35

[[record]]
compound = "FC(F)(F)Oc1cccc(CNCc2ccc(-n3cncn3)nc2)c1"
readout_value = 26.6

[[record]]
compound = "COCCCNC(=O)C1CCN(CC2(O)CCC(C)CC2)CC1 (centres undefined)"
readout_value = -3.99

[[record]]
compound = "O=C1CC2(CCN(Cc3ccc(Cl)s3)C2)C(=O)N1 (centres undefined)"
readout_value = -9.8

[[record]]
compound = "CC(C)C[C@@H](C(N)=O)n1cc(-c2cncnc2)nn1"
readout_value = -8.12

[[record]]
compound = "Cc1nc(CN2CCOC3(CCCC3)C2)no1"
readout_value = -5.91

[[record]]
compound = "c1cnnc(N2CCCC2CNCc2nc(-c3ccoc3)no2)c1 (centres undefined)"
readout_value = 10

[[record]]
compound = "Cc1ccc(CN2CCc3ncnc(-c4ccncc4)c3CC2)o1"
readout_value = -7.23

[[record]]
compound = "Cc1cc(NC(=O)CN2CCN(c3nc(C)cs3)C(C)C2)on1 (centres undefined)"
readout_value = -1.59

[[record]]
compound = "NCC(=O)N1CCC(c2cncc(Oc3cccnc3)n2)CC1"
readout_value = 1.14

[[record]]
compound = "O=C(NC(Cc1ccsc1)c1nccs1)C1CCOCC1 (centres undefined)"
readout_value = -14.6

[[record]]
compound = "C[C@@H]1CN(CC(C)(C)N2CCOCC2)CC[C@@]1(O)C1CCOCC1"
readout_value = 7.82

[[record]]
compound = "N#CCCN(CCC#N)C(=O)CN(C1CC1)C1CCc2ccccc21 (centres undefined)"
readout_value = -2.92

[[record]]
compound = "O=c1c2cccnc2ccn1Cc1nccn1C1CC1"
readout_value = -10.2

[[record]]
compound = "Cc1ccc(-c2n[nH]cc2CNCCn2cccn2)o1"
readout_value = 2.17

[[record]]
compound = "CN1CCCCCC1C(=O)N1CCN(c2ccccc2C#N)CC1 (centres undefined)"
readout_value = -8.6

[[record]]
compound = "CCOCc1nc(CSc2ccncc2)n(C2CCN(C)CC2)n1"
readout_value = 13

[[record]]
compound = "Cc1cc(C(N)=O)nc(C2(C)CCCN2Cc2cnn(C)c2C)n1 (centres undefined)"
readout_value = -0.0176

